Read-out: solute carrier (SLCO1B1), SLCO1B1 (gene 10599)
Assay: LTEA_HepaRG_SLCO1B1: Life Technologies and Expression Analysis (LTEA) Assay for solute carrier (SLCO1B1) using HepaRG (AID 2283530)
Conditions: mRNA level, 48 h; actives raise or lower the signal
Activity calls are given as the source filed them. Rule for the calls: active = hit-call score of the fitted dose curve at least 0.9, where 1 is the maximum; inactive = score below 0.9.
Bench note: report the call from Yes for active, No for inactive

Answered cases to consult:
INSERT INTO assay_data (molecule, class_assignment) VALUES
  ('NC(=O)N(O)[C@@H]1COc2cc(OCc3ccccc3)ccc21', 'No'),
  ('C=CCc1cc(S(=O)(=O)c2ccc(O)c(CC=C)c2)ccc1O', 'Yes'),
  ('O=C(O)c1cccc(C(=O)O)c1', 'No'),
  ('CCCCCCCC1CCC(=O)O1 (stereo unspecified)', 'No'),
  ('CCCOc1ccc(S(=O)(=O)N2CCN(CC)CC2)cc1-c1nc2c(CC)n(Cc3ccccn3)nc2c(=O)[nH]1', 'Yes');

Please share the test call associated with `C[C@@H](Oc1ccc(CNC(=O)c2cccnc2Oc2ccc3c(c2)OCO3)c(F)c1)C(=O)O` .
No

Please share the test call associated with `OCc1ccccc1` .
No

----------
System: Thyroperoxidase (TPO), gene 54314
Test: CCTE_Simmons_AUR_rTPO: CCTE's Amplex UltraRed Assay for Thyroperoxidase (TPO) Inhibition, Simmons Lab (AID 2283662);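 note: potency for loss of signal meaning inhibition of peroxidase activity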
Active and inactive are the calls of the source. How the source made its calls: active means hit-call score of the fitted dose curve at least 0.9, where 1 is the maximum; inconclusive means response in the unintended direction; inactive means score below 0.9.
Bench note: report the call from active, inactive

Answered cases to consult:
INSERT INTO results (given_smiles, class_assignment) VALUES
  ('Cn1cc[nH]c1=S', 'active'),
  ('Cc1cccc(O)c1C', 'active');

Please share the test call associated with `CCc1ccc(O)c(C(C)(C)C)c1` .
active

Please share the test call associated with `C[C@@H](Oc1ccc(CNC(=O)c2cccnc2Oc2ccc3c(c2)OCO3)c(F)c1)C(=O)O` .
active

Please share the test call associated with `C=CCc1cc(S(=O)(=O)c2ccc(O)c(CC=C)c2)ccc1O` .
active

----------
Read-out: Transforming Growth Factor (TGFB1), TGFB1 (gene 7040)
Assay: LTEA_HepaRG_TGFB1: Life Technologies and Expression Analysis (LTEA) Assay for Transforming Growth Factor (TGFB1) Transporter using HepaRG (AID 2283533)
Settings: mRNA level, 48 h; actives raise or lower the signal
Calls of active or inactive are those of the source. Rule for the calls: active = hit-call score of the fitted dose curve at least 0.9, where 1 is the maximum; inactive = score below 0.9.
Bench note: report the call from active, inactive

Answered cases to consult:
INSERT INTO results (compound, class_assignment) VALUES
  ('CCCCCCCCN(C)C', 'inactive'),
  ('CC[C@H](C)C(=O)O[C@H]1C[C@H](O)C=C2C=C[C@H](C)[C@H](CC[C@@H](O)C[C@@H](O)CC(=O)O)[C@H]21', 'inactive'),
  ('CNC(C)=O', 'inactive'),
  ('COS(C)(=O)=O', 'inactive'),
  ('CCCCCCCC1CCC(=O)O1 (stereo not drawn)', 'inactive');

Please share the test call associated with `c1ccc(C(O[C@@H]2CCCN(CCc3ccc4c(c3)OCO4)C2)c2ccccc2)cc1` .
active

Please share the test call associated with `Nc1ccn([C@@H]2O[C@H](CO)[C@@H](O)[C@@H]2O)c(=O)n1` .
inactive

Please share the test call associated with `CCN(CC)C(=S)SSC(=S)N(CC)CC` .
inactive

Please share the test call associated with `Cc1nc(-c2ccccn2)ncc1C(=O)Nn1cc(C)c2cc(F)ccc21` .
inactive

Please share the test call associated with CC(C)CCCCCCOC(=O)C1CCCCC1C(=O)OCCCCCCC(C)C (stereo not drawn) .
inactive

Please share the test call associated with `C=CN1CCCC1=O` .
inactive

Please share the test call associated with `CCCCOC(=O)c1ccccc1` .
inactive

Please share the test call associated with `CC(C)c1nnc2ccc(-c3ocnc3-c3cc(F)ccc3F)cn12` .
inactive

Please share the test call associated with `NC(=O)N1c2ccccc2C=Cc2ccccc21` .
inactive

Please share the test call associated with `O=C(NO)C1(NS(=O)(=O)c2ccc(Oc3ccc(F)cc3)cc2)CCOCC1` .
inactive

Please share the test call associated with `CCCc1ccccc1` .
inactive

----------
Assay: ATG_RORE_CIS: Attagene CIS-FACTORIAL HepG2 Assay for human RAR-related Orphan Receptor Element (RORE) (AID 2282959)
Settings: HepG2 Attagene cis-factorial RORE reporter, mRNA; actives raise or lower the signal
Active and inactive are the calls of the source. How the source made its calls: active means hit-call score of the fitted dose curve at least 0.9, where 1 is the maximum; inactive means score below 0.9.
Bench note: report the call from active, inactive

Please share the test call associated with `OCC(CO)(CO)CO` .
inactive

Please share the test call associated with `CCc1ccc(O)c(C(C)(C)C)c1` .
inactive

Please share the test call associated with `CCCOc1ccc(S(=O)(=O)N2CCN(CC)CC2)cc1-c1nc2c(CC)n(Cc3ccccn3)nc2c(=O)[nH]1` .
active

Please share the test call associated with `Cn1cc[nH]c1=S` .
inactive

Please share the test call associated with `NC(=O)NN=Cc1ccc([N+](=O)[O-])o1` .
inactive

Please share the test call associated with `C[C@@H](Oc1ccc(CNC(=O)c2cccnc2Oc2ccc3c(c2)OCO3)c(F)c1)C(=O)O` .
inactive

Please share the test call associated with `OC(CCl)CCl` .
inactive

Please share the test call associated with `C=CN1CCCC1=O` .
inactive

Please share the test call associated with `FC(F)(F)C(F)(F)C(F)(F)C(F)(F)C(F)(F)C(F)(F)I` .
inactive

----------
Read-out: Plasminogen activator inhibitor-1 (PAI1), SERPINE1 (gene 5054)
Assay: BSK_BE3C_PAI1: BioMAP Diversity Plus: BE3C Assay for Plasminogen activator inhibitor-1 (PAI1) Biomarker Activity (AID 2283037)
Details: primary human bronchial epithelial cells; actives raise or lower the signal
Activity calls are given as the source filed them. How the source made its calls: active means hit-call score of the fitted dose curve at least 0.9, where 1 is the maximum; inactive means score below 0.9.
Bench note: report the call from active, inactive

INSERT INTO results (compound, class_assignment) VALUES
  ('NC(=O)N(O)[C@@H]1COc2cc(OCc3ccccc3)ccc21', 'inactive'),
  ('O=C(O)c1cccc(C[C@@H]2COc3ccc(OCc4nc5cc(F)ccc5s4)cc3[C@@H]2O)c1', 'inactive'),
  ('Cc1cccc(O)c1C', 'inactive'),
  ('O=C1CN(N=Cc2ccc([N+](=O)[O-])o2)C(=O)N1', 'inactive');

Please share the test call associated with `CCCCCOC(C)=O` .
inactive

Please share the test call associated with `OC[C@H]1O[C@@](CO)(O[C@H]2O[C@H](CO)[C@@H](O)[C@H](O)[C@H]2O)[C@@H](O)[C@@H]1O` .
inactive

Please share the test call associated with `O=S1(=O)CCCO1` .
inactive

Please share the test call associated with `COCc1nnc(-c2ccc[n+]([O-])c2)n1-c1c(Cl)c(Cl)cc2[nH]c(=O)c(=O)[nH]c12` .
inactive

Please share the test call associated with `CCCCCCCC/C=C\CCCCCCCC(=O)OC[C@@H](O)[C@H]1OC[C@H](O)[C@H]1O` .
inactive

Please share the test call associated with `FC(F)=C(F)C(F)(F)C(F)(F)C(F)(F)C(F)(F)C(F)(F)C(F)(F)F` .
inactive

Please share the test call associated with `CCCc1ccccc1` .
inactive

----------
Test: APR_HepG2_CellCycleArrest_24hr: Apredica 24-hour HepG2 Assay for Cell Cycle Arrest (AID 2282905);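 note: cell cycle arrest scored as ratio of 2N to 4N nuclear DNA content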
Conditions: imaging, actives raise or lower the signal
Protocol: APR_HepG2_24hr is a cell-based, multiplexed-readout assay that uses HepG2, a human liver cell line, with measurements taken at 24 hours after chemical dosing in a 384-well plate.APR_HepG2_CellCycleArrest_24hr is one of 10 assay component(s) measured or calculated from the APR_HepG2_24hr assay. […] This assay endpoint, APR_HepG2_CellCycleArrest_24hr, was analyzed with bidirectional fitting relative to DMSO as the negative control and baseline of activity. […]
Calls of active or inactive are those of the source. Rule for the calls: active = hit-call score of the fitted dose curve at least 0.9, where 1 is the maximum; inactive = score below 0.9.
Bench note: report the call from 1 (yes) (active), 0 (no) (inactive)

Answered cases to consult:
INSERT INTO results (molecule, class_assignment) VALUES
  ('CCCCCCCCN(C)C', '0 (no)'),
  ('O=C(O)[C@H](O)[C@@H](O)C(=O)O', '0 (no)'),
  ('NC(N)=O', '0 (no)'),
  ('Nc1ccn([C@@H]2O[C@H](CO)[C@@H](O)[C@@H]2O)c(=O)n1', '1 (yes)'),
  ('Cc1nccn1-c1ccc(Sc2cccc(C3(C(N)=O)CCOCC3)c2)cc1', '0 (no)');

Please share the test call associated with `OC(CCl)CCl` .
0 (no)

Please share the test call associated with CCCCC(CC)C(=O)OCCOCCOCCOC(=O)C(CC)CCCC (stereo unspecified) .
0 (no)

Please share the test call associated with `CCn1nc(C)c2c1C(=O)NCC(c1ccc(O)cc1)=N2` .
0 (no)

Please share the test call associated with `CCCCCCCC/C=C\CCCCCCCC(=O)OC[C@@H](O)[C@H]1OC[C@H](O)[C@H]1O` .
0 (no)

Please share the test call associated with `c1ccc(C(O[C@@H]2CCCN(CCc3ccc4c(c3)OCO4)C2)c2ccccc2)cc1` .
1 (yes)

Please share the test call associated with `CCN(CC)C(=S)SSC(=S)N(CC)CC` .
0 (no)
